Reported shrunken log2 fold change values follow for various sequences
- Test system: Escherichia coli TOP10
- Test name: shrunken log2 fold change of peptide-encoding DNA abundance (4.5 h post-induction vs induction); higher = less antimicrobial activity (less host growth inhibition)
- Test settings: time post-induction: 4.5 h; library: site-saturation at positions 5, 18, 19, 20

{"Sequence text": "RRIRGRPPRLPRPRPRPLHWPRP", "shrunken log2 fold change": 0.627}
{"Sequence text": "RRIRHRPPRLPRPRPRPPSSPRP", "shrunken log2 fold change": -0.00863}
{"Sequence text": "RRIRMRPPRLPRPRPRPNQFPRP", "shrunken log2 fold change": -0.0124}
{"Sequence text": "RRIRIRPPRLPRPRPRPHPAPRP", "shrunken log2 fold change": -0.516}
{"Sequence text": "RRIRKRPPRLPRPRPRPMSWPRP", "shrunken log2 fold change": 5.25}
{"Sequence text": "RRIRVRPPRLPRPRPRPVFIPRP", "shrunken log2 fold change": -0.144}
{"Sequence text": "RRIRQRPPRLPRPRPRPKGHPRP", "shrunken log2 fold change": -0.139}
{"Sequence text": "RRIRPRPPRLPRPRPRPQSRPRP", "shrunken log2 fold change": 0.161}

====

- Tested on: Escherichia coli TOP10;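 further: peptides expressed intracellularly from a pBAD plasmid library in pooled LB shake-flask culture, induced with 0.3% L-arabinose, DNA abundance read by NGS, three biological replicates, DESeq2 with apeglm shrinkage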
- Test name: shrunken log2 fold change of peptide-encoding DNA abundance (4.5 h post-induction vs induction); higher = less antimicrobial activity (less host growth inhibition)
- Test settings: time post-induction: 4.5 h; library: site-saturation at positions 5, 18, 19, 20
Listing of entries alongside the reported shrunken log2 fold change.
Endpoint: shrunken log2 fold change

{"Sequence text": "RRIRNRPPRLPRPRPRPWHVPRP", "Val": 0.0188}
{"Sequence text": "RRIRERPPRLPRPRPRPQIWPRP", "Val": 0.0182}
{"Sequence text": "RRIRHRPPRLPRPRPRPFTKPRP", "Val": 0.009}
{"Sequence text": "RRIRCRPPRLPRPRPRPLARPRP", "Val": 0.0547}
{"Sequence text": "RRIRIRPPRLPRPRPRPHTMPRP", "Val": -0.776}
{"Sequence text": "RRIRGRPPRLPRPRPRPTGHPRP", "Val": 0.448}
{"Sequence text": "RRIRDRPPRLPRPRPRPYPSPRP", "Val": -0.167}
{"Sequence text": "RRIRQRPPRLPRPRPRPEVNPRP", "Val": -0.142}
{"Sequence text": "RRIRGRPPRLPRPRPRPTFYPRP", "Val": 0.264}
{"Sequence text": "RRIRDRPPRLPRPRPRPNSRPRP", "Val": -0.0447}
{"Sequence text": "RRIRDRPPRLPRPRPRPWRRPRP", "Val": 0.0906}
{"Sequence text": "RRIRVRPPRLPRPRPRPNKMPRP", "Val": -0.411}
{"Sequence text": "RRIRTRPPRLPRPRPRPISVPRP", "Val": -0.0512}
{"Sequence text": "RRIRMRPPRLPRPRPRPCKHPRP", "Val": 0.0196}
{"Sequence text": "RRIRARPPRLPRPRPRPARKPRP", "Val": 0.898}
{"Sequence text": "RRIRDRPPRLPRPRPRPPQVPRP", "Val": 0.272}
{"Sequence text": "RRIRNRPPRLPRPRPRPKYCPRP", "Val": -0.225}
{"Sequence text": "RRIRKRPPRLPRPRPRPEASPRP", "Val": 0.497}
{"Sequence text": "RRIRQRPPRLPRPRPRPEQQPRP", "Val": -0.0316}
{"Sequence text": "RRIRSRPPRLPRPRPRPYRYPRP", "Val": -0.262}
{"Sequence text": "RRIRFRPPRLPRPRPRPWPTPRP", "Val": -0.0457}
{"Sequence text": "RRIRKRPPRLPRPRPRPDHCPRP", "Val": 0.00904}
{"Sequence text": "RRIRPRPPRLPRPRPRPWNIPRP", "Val": -0.00871}
{"Sequence text": "RRIRCRPPRLPRPRPRPYADPRP", "Val": -0.037}
{"Sequence text": "RRIRSRPPRLPRPRPRPHADPRP", "Val": 0.121}
{"Sequence text": "RRIRHRPPRLPRPRPRPLSLPRP", "Val": -0.492}
{"Sequence text": "RRIRSRPPRLPRPRPRPHNHPRP", "Val": -0.576}
{"Sequence text": "RRIRKRPPRLPRPRPRPWVVPRP", "Val": 0.423}
{"Sequence text": "RRIRTRPPRLPRPRPRPIEHPRP", "Val": 0.0859}
{"Sequence text": "RRIRNRPPRLPRPRPRPREFPRP", "Val": 0.306}
{"Sequence text": "RRIRARPPRLPRPRPRPGHKPRP", "Val": -0.197}
{"Sequence text": "RRIRFRPPRLPRPRPRPECSPRP", "Val": 0.411}
{"Sequence text": "RRIRYRPPRLPRPRPRPEDLPRP", "Val": -0.00674}
{"Sequence text": "RRIRFRPPRLPRPRPRPLEHPRP", "Val": 0.0403}
{"Sequence text": "RRIRLRPPRLPRPRPRPGMPPRP", "Val": -0.15}
{"Sequence text": "RRIRIRPPRLPRPRPRPIICPRP", "Val": -0.775}
{"Sequence text": "RRIRARPPRLPRPRPRPWSDPRP", "Val": 0.15}
{"Sequence text": "RRIRMRPPRLPRPRPRPRYNPRP", "Val": -0.151}
{"Sequence text": "RRIRHRPPRLPRPRPRPCHKPRP", "Val": -0.0933}
{"Sequence text": "RRIRNRPPRLPRPRPRPSYMPRP", "Val": -1.71}
{"Sequence text": "RRIRGRPPRLPRPRPRPTMVPRP", "Val": 0.786}
{"Sequence text": "RRIRFRPPRLPRPRPRPKQRPRP", "Val": 0.384}
{"Sequence text": "RRIRRRPPRLPRPRPRPEGPPRP", "Val": 0.568}
{"Sequence text": "RRIRCRPPRLPRPRPRPMKHPRP", "Val": -0.486}
{"Sequence text": "RRIRKRPPRLPRPRPRPAEHPRP", "Val": 0.12}
{"Sequence text": "RRIRARPPRLPRPRPRPFLHPRP", "Val": 0.0154}
{"Sequence text": "RRIRNRPPRLPRPRPRPCVLPRP", "Val": -0.202}
{"Sequence text": "RRIRWRPPRLPRPRPRPHQEPRP", "Val": 0.0101}
{"Sequence text": "RRIRARPPRLPRPRPRPRCVPRP", "Val": 0.347}
{"Sequence text": "RRIRNRPPRLPRPRPRPVNFPRP", "Val": -0.157}
{"Sequence text": "RRIRPRPPRLPRPRPRPTRDPRP", "Val": 0.481}
{"Sequence text": "RRIRGRPPRLPRPRPRPYYAPRP", "Val": -0.242}
{"Sequence text": "RRIRCRPPRLPRPRPRPLCVPRP", "Val": -0.481}
{"Sequence text": "RRIRARPPRLPRPRPRPEYCPRP", "Val": 0.409}
{"Sequence text": "RRIRCRPPRLPRPRPRPRMIPRP", "Val": 0.306}
{"Sequence text": "RRIRPRPPRLPRPRPRPLIIPRP", "Val": -0.605}
{"Sequence text": "RRIRVRPPRLPRPRPRPDWLPRP", "Val": -0.0563}
{"Sequence text": "RRIRQRPPRLPRPRPRPDTIPRP", "Val": 0.0406}
{"Sequence text": "RRIRCRPPRLPRPRPRPKGCPRP", "Val": 0.00419}
{"Sequence text": "RRIRYRPPRLPRPRPRPEFKPRP", "Val": 0.0136}
{"Sequence text": "RRIRIRPPRLPRPRPRPQDWPRP", "Val": -0.344}
{"Sequence text": "RRIRCRPPRLPRPRPRPTMAPRP", "Val": -0.0611}
{"Sequence text": "RRIRQRPPRLPRPRPRPGKLPRP", "Val": -0.0396}
